# Run Description: recombinant barcode read abundance after kanamycin selection (control-corrected) (log10(CPM+1)); higher = more efficient recombination; sequences stand for … in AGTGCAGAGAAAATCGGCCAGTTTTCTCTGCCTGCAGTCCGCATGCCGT…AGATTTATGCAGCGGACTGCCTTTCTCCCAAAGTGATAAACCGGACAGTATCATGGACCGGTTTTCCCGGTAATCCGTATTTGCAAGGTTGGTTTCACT; site = the 11-nt target
# class assignment by measured recombinant barcode read abundance (log10): low group (below 0.1), middle group (0.1 to below 0.2), high group (0.2 or more)

Could you place CGCTGCCCTTGGGTTCTAACCTGTTGCTT (site CGCTGCCCTAA) in its proper category? Many thanks.
middle group

Could you place GACGTAACTTGGGTTCTAACCTGTTGCCT (site GAGGTAACTAG) in its proper category? Many thanks.
low group

Could you place GGGTCGGCTTGGGTTCTAACCTGTTGCGA (site GGGTCGGCTGC) in its proper category? Many thanks.
middle group

Could you place CCTAAGTCTTGGGTTCTAACCTGTTGCCA (site CCTAAGTCTTG) in its proper category? Many thanks.
middle group

Could you place GACCTACCTTGGGTTCTAACCTGTTGCAG (site GACCTACCTCT) in its proper category? Many thanks.
high group

Could you place GTGTGAACTTGGGTTCTAACCTGTTGCCG (site GAGTTAACTCG) in its proper category? Many thanks.
low group

Could you place GAGGCGGCTTGGGTTCTAACCTGTTGCTT (site GAGTCGGCTAA) in its proper category? Many thanks.
low group

Could you place GAACGCTCTTGGGTTCTAACCTGTTGCTT (site TGTAAGACTCT) in its proper category? Many thanks.
high group

Could you place GTCGACACTTGGGTTCTAACCTGTTGCCT (site GTCGAGTCTAG) in its proper category? Many thanks.
middle group

Could you place ACTTGAACTTGGGTTCTAACCTGTTGCCT (site ACGTGAACTAG) in its proper category? Many thanks.
middle group

Could you place CTCTTGTCTTGGGTTCTAACCTGTTGCTG (site CTCTTGTCTCA) in its proper category? Many thanks.
high group

Could you place TGCCCGCCTTGGGTTCTAACCTGTTGCCT (site AGCCCGCCTAG) in its proper category? Many thanks.
low group

Could you place AAGGCGCCTTGGGTTCTAACCTGTTGCCT (site AAGGCGCCTAG) in its proper category? Many thanks.
high group

Could you place GAGAACACTTGGGTTCTAACCTGTTGCCT (site AAGAACACTAG) in its proper category? Many thanks.
high group

Could you place TCAAGCCCTTGGGTTCTAACCTGTTGCAG (site CAGTCTACTAC) in its proper category? Many thanks.
low group

Could you place AGCCACGCTTGGGTTCTAACCTGTTGCCT (site AGCCACCCTAG) in its proper category? Many thanks.
high group

###

# Run Description: recombinant UMI read abundance after kanamycin selection (control-corrected) (log10(CPM+1)); higher = more efficient recombination; extreme values may be limits of the assay; sequences stand for … in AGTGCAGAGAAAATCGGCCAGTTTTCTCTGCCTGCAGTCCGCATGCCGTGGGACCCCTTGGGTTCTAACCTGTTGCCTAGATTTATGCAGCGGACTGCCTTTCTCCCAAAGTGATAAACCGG…AGGTTGGTTTCACT; site = the 11-nt donor
Exercise: for every item that follows, state its recorded recombinant UMI read abundance (log10).
Respond numerically, and do not add a unit to the figure.

Suppose we examine the sequence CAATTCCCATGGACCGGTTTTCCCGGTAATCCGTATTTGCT (site CAATCCCCTAG) ; what recombinant UMI read abundance (log10) value has been reported?
0.539

Suppose we examine the sequence ACCGGAACATGGACCGGTTTTCCCGGTAATCCGTATTTGTG (site ACCGGAACTCA) ; what recombinant UMI read abundance (log10) value has been reported?
1.41

Suppose we examine the sequence GAAGCAGCATGGACCGGTTTTCCCGGTAATCCGTATTTGCT (site CAAGCAGCTAG) ; what recombinant UMI read abundance (log10) value has been reported?
1.19

Suppose we examine the sequence TTTCCGGCATGGACCGGTTTTCCCGGTAATCCGTATTTGCT (site TTTTCGGCTAG) ; what recombinant UMI read abundance (log10) value has been reported?
0.0123

Suppose we examine the sequence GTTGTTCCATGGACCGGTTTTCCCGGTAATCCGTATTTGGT (site GTTATTCCTAC) ; what recombinant UMI read abundance (log10) value has been reported?
0.00427

Suppose we examine the sequence TACCTGACATGGACCGGTTTTCCCGGTAATCCGTATTTGGC (site TACCTGACTGC) ; what recombinant UMI read abundance (log10) value has been reported?
0

Suppose we examine the sequence GGGCACCCATGGACCGGTTTTCCCGGTAATCCGTATTTGTT (site GGTCACCCTAA) ; what recombinant UMI read abundance (log10) value has been reported?
0.268

Suppose we examine the sequence TTCACTCCATGGACCGGTTTTCCCGGTAATCCGTATTTGAG (site TTCACTCCTCT) ; what recombinant UMI read abundance (log10) value has been reported?
0

Suppose we examine the sequence ACTAGTGCATGGACCGGTTTTCCCGGTAATCCGTATTTGGA (site ACTAGTGCTGC) ; what recombinant UMI read abundance (log10) value has been reported?
0
